Target: T1, Mouse Gremlin-His (R&D) (mouse, UniProt O70326 25-184)
T1 construct: Lys25-Asp184 with 10xHis, R&D 956-GR; also called mouse gremlin (R&D); mGREM1
T1 sequence: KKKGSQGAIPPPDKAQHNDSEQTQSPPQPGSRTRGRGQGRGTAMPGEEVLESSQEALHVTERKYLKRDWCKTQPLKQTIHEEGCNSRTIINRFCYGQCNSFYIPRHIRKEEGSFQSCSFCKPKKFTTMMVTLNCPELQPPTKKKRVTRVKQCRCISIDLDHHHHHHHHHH
Assay: ELISA, coated mouse gremlin (R&D)
Experimental: Clear polystyrene plates (BEAVER) were coated with 100 μl/well of a […] hGREM1 (ACRO) and mouse gremlin (R&D) in high pH coating buffer overnight at 4° C. Then the plates were washed once on an automatic plate washer using PBS+0.1% Tween 20 (Sigma). […] The plates were read on a Multiscan FC microplate reader (Thermo Scientific) at 450 nM.
ENDPOINT: EC50 (ng/mL)
Respond with the bare value in ng/mL.

{"columns": ["BINDER", "UNIT_LABEL", "READING"],
 "data": [
  ["56C11 (antibody, V domains shown, mouse hybridoma antibody; also called hybridoma 56C11) VH: EVQLQQSGPELVKPGASVKISCKASGYTFTDFYMNWVKQSHGKSLEWIGDINPNNGGTSYNQKFKGKATLTVDKSSSTAYMELRSLTSEDSAVYYCARDPIYYDYDEVAYWGQGTLVTVSA VL: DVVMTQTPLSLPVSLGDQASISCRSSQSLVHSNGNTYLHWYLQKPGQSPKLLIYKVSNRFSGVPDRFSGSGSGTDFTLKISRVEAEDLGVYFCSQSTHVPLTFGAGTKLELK", "ng/mL", 17.2],
  ["67G11 (antibody, V domains shown, mouse hybridoma antibody; also called hybridoma 67G11) VH: QVQLQQSGAELARPGASVKLSCKASGYTFTSYGIGWVKQRTGQGLEWIGEIYPRSGNTYNNEKFKGKATLTADKSSRTVYMELRSLISEDSAVYFCAREGYSNNYYAMDYWGQGTSVTVFS VL: DVLMTQTPLSLPVSLGDQASISCRSSQSLVHSNGNTYLEWYLQKPGQSPKLLIYKVSNRFSGVPDRLSGSGSGTDFTLKISRVEAEDLGVYYCFQGSHVPFTFGSGTKLEIK", "ng/mL", 7.71],
  ["42B9 (antibody, V domains shown, mouse hybridoma antibody; also called hybridoma 42B9) VH: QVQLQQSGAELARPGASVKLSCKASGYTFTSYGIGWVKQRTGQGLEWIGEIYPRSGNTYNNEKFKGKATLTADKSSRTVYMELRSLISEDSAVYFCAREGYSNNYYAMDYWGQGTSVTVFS VL: DVLMTQTPLSLPVSLGDQASISCISSQSLVHSNGNTYLEWYLQKPGLSPKLLIYKVSNRFSGVPDRLSGSGSGTDFTLRISRVEAEDLGVYYCFQGSHVPFTFGSGTKLEIK", "ng/mL", 8.51]
]}

Would you kindly look at the next entry?
Query: Any idea what its EC50 is? The binder is 36F5 (antibody, V domains shown, mouse hybridoma antibody; also called hybridoma 36F5) VH: QVQLQQSGAELARPGASVKLSCKASGYSFTSSGIGWVKQRSGQGLEWIGEIYPRSGNTYNNEKFKGKATLTADKSSSTVYMELRSLTSEDSAVYFCVREAYSHHYYAMDYWGQGTSVTVFS VL: DVLMTQTPLSLPVSLGGQASISCRSSQSLLHSNGNTYLEWYLQKPGQSPKLLIYKVSNRFSGVPDRLSGSGSGTDFTLKISRVEAEDLGVYYCFQGSHVPFTFGSGTKLEIN
Reply: 4.56
